Answer each item with its documented inhibition.
assay info: CRL2098 osteosarcoma cell growth inhibition, synergistic combos for chromothripsis tumors, BGB or cisplatin IC20 combos (AID 1671454);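 also: cells exposed for 96 h before readout; 0% = vehicle DMSO and 100% = killing by high DMSO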
run parameters: CRL2098 osteosarcoma cells, drug combinations, at 0.5 µM, stronger effect = higher value
Calls of active or inactive are those of the source. Rule as the data show it: active = inhibition above about 80%; inactive = the rest.

The compound identified as `O=c1[nH]c(=O)n([C@H]2C[C@H](O)[C@@H](CO)O2)cc1C(F)(F)F` registered its inhibition at -101% (inactive)

The compound identified as `CN1CCN(c2c(F)cc3c(=O)c(C(=O)O)cn4c3c2OCN4C)CC1` registered its inhibition at -52.3% (inactive)

The compound identified as CNC1CCCN(c2c(F)cc3c(=O)c(C(=O)O)cn(C4CC4)c3c2OC)C1 (stereo not drawn) registered its inhibition at -81.1% (inactive)

* * *

assay info: growth inhibition of DIPG glioma cells, dose response, cell-based, SU-DIPG-XIII, MIPE5.0, CellTiter-Glo, qHTS (AID 1347064);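 as to AC50: cells exposed to compound for 48 hours before the viability read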
run parameters: SU-DIPG-XIII viability, CellTiter-Glo ATP luminescence
Records with an inconclusive call do not appear. The source made the active and inactive calls. The limit is not given here; nearly all actives have AC50 up to about 23 µM.
Write down the outcome that applies. Available outcomes: active, inactive

Request: Hello, I am checking results. What call was entered for `CC(C)(C)C(=O)OCOP(=O)(COCCn1cnc2c(N)ncnc21)OCOC(=O)C(C)(C)C` ?
Result: active

Request: Hello, I am checking results. What call was entered for `COc1ccc([C@@H]2CC(=O)c3c(O)cc(O[C@@H]4O[C@H](CO[C@@H]5O[C@@H](C)[C@H](O)[C@@H](O)[C@H]5O)[C@@H](O)[C@H](O)[C@H]4O)cc3O2)cc1O` ?
Result: inactive

Request: Hello, I am checking results. What call was entered for Cc1oc(=O)oc1CN1CCN(c2cc3c(cc2F)c(=O)c(C(=O)O)c2n3C(C)S2)CC1 (stereo unspecified) ?
Result: inactive

Request: Hello, I am checking results. What call was entered for `O=C(CCc1ccc(O)cc1)c1c(O)cc(O)cc1O` ?
Result: inactive

Request: Hello, I am checking results. What call was entered for `CN(C)C(=O)COC(=O)Cc1ccc(OC(=O)c2ccc(N=C(N)N)cc2)cc1` ?
Result: inactive

Request: Hello, I am checking results. What call was entered for `CCCCCCCCCCCCCCCCCCCCCCO` ?
Result: inactive

Request: Hello, I am checking results. What call was entered for `CC1=C(/C=C/C(C)=C/C=C/C(C)=C\C(=O)O)C(C)(C)CCC1` ?
Result: inactive

Request: Hello, I am checking results. What call was entered for `Cc1cc(O)c2c(c1)C(=O)c1cccc(O)c1C2=O` ?
Result: inactive

Request: Hello, I am checking results. What call was entered for `O=S(=O)(c1cccc2cnccc12)N1CCCNCC1` ?
Result: inactive

Request: Hello, I am checking results. What call was entered for `COC(=O)[C@H](c1ccccc1Cl)N1CCc2sccc2C1` ?
Result: inactive

Request: Hello, I am checking results. What call was entered for `CN(N=O)C(=O)N[C@@H]1[C@@H](O)[C@H](O)[C@@H](CO)O[C@@H]1O` ?
Result: inactive

Request: Hello, I am checking results. What call was entered for `COc1ccc(/C=C/C(=O)Nc2ccccc2C(=O)O)cc1OC` ?
Result: inactive

Request: Hello, I am checking results. What call was entered for `COc1c2occc2cc2ccc(=O)oc12` ?
Result: inactive

Request: Hello, I am checking results. What call was entered for `C[C@@H](NCCCc1cccc(C(F)(F)F)c1)c1cccc2ccccc12` ?
Result: active

Request: Hello, I am checking results. What call was entered for `Cc1ccc(N(CC2=NCCN2)c2cccc(O)c2)cc1` ?
Result: inactive

Request: Hello, I am checking results. What call was entered for `CS(=O)(=O)c1ccc(C2=C(c3ccccc3)C(=O)OC2)cc1` ?
Result: inactive

Request: Hello, I am checking results. What call was entered for `NC[C@H]1O[C@H](O[C@H]2[C@H](O)[C@@H](O[C@H]3O[C@H](CO)[C@@H](O)[C@H](N)[C@H]3O)[C@H](N)C[C@@H]2N)[C@H](N)C[C@@H]1O` ?
Result: inactive

Request: Hello, I am checking results. What call was entered for `NC(=O)c1cccnc1` ?
Result: inactive

Request: Hello, I am checking results. What call was entered for `c1cnc2cc3c(cc2n1)C1CNCC3C1` ?
Result: inactive

Request: Hello, I am checking results. What call was entered for `O=[N+]([O-])c1cncn1CCN1CCOCC1` ?
Result: inactive

Request: Hello, I am checking results. What call was entered for `CCCc1nn(C)c2c(=O)[nH]c(-c3cc(S(=O)(=O)N4CCN(C)CC4)ccc3OCC)nc12` ?
Result: inactive
